Hey, just so you know, these numbers are from paper PMC8245078.

Each entry below lists one item and its recorded inhibition at 10 µM value.
tested on: OVCAR-8; assay: NCI single dose screening (10 µM); format: cell-based; settings: Homo sapiens; OVCAR-8, Ovarian cancer, single dose 10^−5 M; read-out: GI% (cell growth inhibition percentage)

Some molecules with recorded inhibition at 10 µM:
[
  {
    "compound.string": "COc1ccc2c(c1)/C(=N/NC(=O)c1oc3ccccc3c1C)C(=O)N2",
    "experimental.value": "62.2%"
  },
  {
    "compound.string": "Cc1c(C(=O)N/N=C2\\C(=O)N(C)c3ccccc32)oc2ccccc12",
    "experimental.value": "< 10%"
  },
  {
    "compound.string": "Cc1c(C(=O)N/N=C2\\C(=O)Nc3ccc(F)cc32)oc2ccccc12",
    "experimental.value": "< 10%"
  }
]

Lookup: Give recorded inhibition at 10 µM. Cc1c(C(=O)N/N=C2\C(=O)Nc3ccc(Br)cc32)oc2ccccc12
Found: 22.5%
